Reported values of pIC50 for individual entries
Target: Human M4 (Homo sapiens)
Sequence (P08173 whole entry): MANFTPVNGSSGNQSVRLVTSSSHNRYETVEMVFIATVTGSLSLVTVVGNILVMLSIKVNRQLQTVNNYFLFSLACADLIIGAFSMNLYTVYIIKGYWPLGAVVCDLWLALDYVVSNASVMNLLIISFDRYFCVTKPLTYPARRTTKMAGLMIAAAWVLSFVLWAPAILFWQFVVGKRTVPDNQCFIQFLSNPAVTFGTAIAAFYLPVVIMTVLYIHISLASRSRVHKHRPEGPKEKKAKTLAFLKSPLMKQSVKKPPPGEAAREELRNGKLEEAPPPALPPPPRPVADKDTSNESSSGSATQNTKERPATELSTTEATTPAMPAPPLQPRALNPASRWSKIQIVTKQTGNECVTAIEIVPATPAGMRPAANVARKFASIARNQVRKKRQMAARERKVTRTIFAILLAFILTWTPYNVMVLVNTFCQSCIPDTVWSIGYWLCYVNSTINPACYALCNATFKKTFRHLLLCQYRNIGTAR
Assay: mAChR M4 cell-based functional assay (calcium flux, antagonism of EC80 acetylcholine response)
Settings: M4/Gqi5/CHO-K1 cells; concentration-dependent decrease of the response elicited by an EC80 concentration of acetylcholine
pIC50: −log10 of the molar value.
QUANTITY_KIND: pIC50

- COMPOUND: "CCC(=O)Nc1ccccc1-c1ccc(N[C@H]2C[C@@H]3CN(CC4CCOCC4)C[C@@H]3C2)nn1"
  QUANTITY_KIND: "pIC50"
  VAL: 7.17
- COMPOUND: "[2H]C([2H])([2H])NC(=O)c1ccccc1-c1ccc(N[C@H]2C[C@@H]3CN(C([2H])([2H])C4CCOCC4)C[C@@H]3C2)nn1"
  QUANTITY_KIND: "pIC50"
  VAL: 6.70
- COMPOUND: "CC(=O)Nc1ccc(-c2ccc(N[C@H]3C[C@@H]4CN(Cc5ccc(F)cc5)C[C@@H]4C3)nn2)cc1"
  QUANTITY_KIND: "pIC50"
  VAL: 8.00
- COMPOUND: "[2H]C([2H])(C1CCOCC1)N1C[C@H]2C[C@H](Nc3ccc(-c4cccc(NC(C)=O)c4)nn3)C[C@H]2C1"
  QUANTITY_KIND: "pIC50"
  VAL: 7.96
- COMPOUND: "[2H]C([2H])(C1CCOCC1)N1C[C@H]2C[C@H](Nc3ccc(-c4ccc(NC(=O)C5CC5)cc4)nn3)C[C@H]2C1"
  QUANTITY_KIND: "pIC50"
  VAL: 8.92
- COMPOUND: "[2H]C([2H])(C1CCOCC1)N1C[C@H]2C[C@H](Nc3ccc(-c4ccc(F)c(C(=O)NC)c4)nn3)C[C@H]2C1"
  QUANTITY_KIND: "pIC50"
  VAL: 6.51
- COMPOUND: "CNC(=O)c1cccc(-c2ccc(N[C@H]3C[C@@H]4CN(CC5CCOCC5)C[C@@H]4C3)nn2)c1"
  QUANTITY_KIND: "pIC50"
  VAL: 7.92
- COMPOUND: "[2H]C([2H])([C@@H]1CCCOC1)N1C[C@H]2C[C@H](Nc3ccc(-c4cc(F)cc(C(=O)NC)c4)nn3)C[C@H]2C1"
  QUANTITY_KIND: "pIC50"
  VAL: 7.08
- COMPOUND: "[2H]C([2H])(C1CC(C)(C)OC(C)(C)C1)N1C[C@H]2C[C@H](Nc3ccc(-c4cccc(C(=O)NC)c4)nn3)C[C@H]2C1"
  QUANTITY_KIND: "pIC50"
  VAL: 7.00
- COMPOUND: "CC(=O)Nc1cccc(-c2ccc(N[C@H]3C[C@@H]4CN(CC5CCOCC5)C[C@@H]4C3)nn2)c1"
  QUANTITY_KIND: "pIC50"
  VAL: 7.47
- COMPOUND: "[2H]C1([2H])CC(C([2H])([2H])N2C[C@H]3C[C@H](Nc4ccc(-c5cccc(C(=O)NC)c5)nn4)C[C@H]3C2)CC([2H])([2H])O1 (single isomer, unassigned)"
  QUANTITY_KIND: "pIC50"
  VAL: 7.40
- COMPOUND: "CC1(O)CN(C(=O)c2ccc(-c3ccc(N[C@H]4C[C@@H]5CN(CC6CCOCC6)C[C@@H]5C4)nn3)cc2)C1"
  QUANTITY_KIND: "pIC50"
  VAL: 7.82
